// provenance: ChEMBL document CHEMBL1135091

- target-or-system: Prothrombin (Homo sapiens, UniProt P00734)
pIC50: −log10 of the molar value.
metric-name: pIC50

A. N=C(N)N1CCC(C(=O)NC[C@@H]2CCCN2C(=O)[C@H](CO)NS(=O)(=O)c2ccc3ccccc3c2)CC1
B. N=C(N)NCCCCCC(=O)NC[C@@H]1CCCN1C(=O)[C@H](CO)NS(=O)(=O)c1ccc2ccccc2c1
C. N=C(N)N1CCC(CC(=O)NC[C@@H]2CCCN2C(=O)[C@H](CO)NS(=O)(=O)c2ccc3ccccc3c2)CC1
D. N=C(N)NCCCCNC(=O)[C@@H]1CCCN1C(=O)[C@H](CO)NS(=O)(=O)c1ccc2ccccc2c1
List by increasing pIC50. Write the labels out in the order the request specifies.
D, C, A, B

P. N=C(N)NCCCCC(=O)NC[C@@H]1CCCN1C(=O)[C@H](CO)NS(=O)(=O)c1ccc2ccccc2c1
Q. N=C(N)N1CCCC(C(=O)NC[C@@H]2CCCN2C(=O)[C@H](CO)NS(=O)(=O)c2ccc3ccccc3c2)C1 (stereo partly drawn)
Which of these two has the smaller recorded pIC50: P or Q ? Use the label to indicate which entry you chose.
P
(P: 7.10, Q: 7.49)
